Measured IC50 values are reported for all entries that follow.
target: PARP-1 enzyme (Homo sapiens, UniProt P09874); assay: In vitro filtration assay for PARP-1 inhibitory activity; assay type: biochemical; conditions: [32P]-NAD, histones, nicked DNA; read-out: in vitro filter assay PARP-1 pIC50 (converted)
Sequence (P09874 whole entry): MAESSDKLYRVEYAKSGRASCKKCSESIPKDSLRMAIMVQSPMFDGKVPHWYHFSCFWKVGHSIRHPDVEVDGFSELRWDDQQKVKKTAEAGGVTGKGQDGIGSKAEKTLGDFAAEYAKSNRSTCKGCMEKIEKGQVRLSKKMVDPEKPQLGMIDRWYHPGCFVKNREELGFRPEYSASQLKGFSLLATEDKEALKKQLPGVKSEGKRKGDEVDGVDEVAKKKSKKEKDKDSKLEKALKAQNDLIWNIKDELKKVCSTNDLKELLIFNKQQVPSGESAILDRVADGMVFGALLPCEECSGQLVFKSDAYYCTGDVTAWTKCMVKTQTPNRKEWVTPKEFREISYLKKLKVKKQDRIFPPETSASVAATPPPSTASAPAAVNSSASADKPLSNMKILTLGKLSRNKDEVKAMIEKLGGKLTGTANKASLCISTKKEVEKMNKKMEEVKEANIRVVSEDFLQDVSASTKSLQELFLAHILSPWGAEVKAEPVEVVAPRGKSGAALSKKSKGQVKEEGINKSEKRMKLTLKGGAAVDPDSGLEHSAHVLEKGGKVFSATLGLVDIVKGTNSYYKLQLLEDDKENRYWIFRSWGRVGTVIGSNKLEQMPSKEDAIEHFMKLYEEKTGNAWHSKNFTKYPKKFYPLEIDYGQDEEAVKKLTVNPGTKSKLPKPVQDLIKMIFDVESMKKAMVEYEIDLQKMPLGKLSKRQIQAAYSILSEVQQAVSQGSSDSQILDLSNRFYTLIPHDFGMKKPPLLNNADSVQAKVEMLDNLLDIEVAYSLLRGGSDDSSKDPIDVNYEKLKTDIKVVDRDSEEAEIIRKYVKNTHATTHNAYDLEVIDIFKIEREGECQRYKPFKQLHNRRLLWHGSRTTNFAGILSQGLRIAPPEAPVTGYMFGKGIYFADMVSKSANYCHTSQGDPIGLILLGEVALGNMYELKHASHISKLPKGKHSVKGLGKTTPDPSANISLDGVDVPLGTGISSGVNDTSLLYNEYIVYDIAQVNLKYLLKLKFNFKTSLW
Number only, in µM; omit the unit.

CC1(C)Cc2c(N)c(Cl)cc(C(=O)NC3CCN(CCCNc4nc(O)c5ccccc5n4)CC3)c2O1 [Compound 4] : 3.65
O=c1[nH]c(NCCCN2CCC(n3c(=O)[nH]c4ccccc43)CC2)nc2ccccc12 [Compound 29] : 4.65
O=C(NC1CCN(CCCNc2nc3ccccc3c(=O)[nH]2)CC1)c1ccccc1 [Compound 23] : 2.54

Give the reported value of IC50 for this record: Nc1c(Cl)cc(C(=O)NC2CCN(CCCNc3nc(O)c4ccccc4n3)CC2)c2c1CCO2 [Compound 45]
3.05

----------
Target: TANK-2 enzyme (Homo sapiens, UniProt Q9H2K2)
Construct: made in house
Assay: In vitro scintillation proximity assay (SPA) for TANK-2 inhibitory activity
Format: biochemical
Conditions: auto-poly(ADP-ribosyl)ation; 96-well plate results if available, otherwise 384-well; read-out: in vitro SPA assay TANK-2 pIC50 (converted)
Protocol: In Vitro Scintillation Proximity Assay (SPA) for TANK-2 Inhibitory Activity Compounds of the present invention were tested in an in vitro assay based on SPA technology with Ni Flash plates (96 or 384 well). In principle, the assay relies upon SPA technology for the detection of auto-poly(ADP-ribosyl)ation of TANK-2 protein using [^3H]-nicotinamide adenine dinucleotide ([^3H]-NAD^+) as ADP-ribosyl donor. […]
readout_kind: IC50

See these solved cases before continuing.
O=c1[nH]c(NCCCN2CCC(c3n[nH]c4cc(F)ccc34)CC2)nc2ccccc12 : > 10 µM
CO[C@@H]1CN(CCCNc2nc(O)c3ccccc3n2)CCN1NC(=O)c1cc(Cl)c(N)c2c1OC(C)(C)C2 : > 10 µM
Cc1cccc2nc(NCCN3CCN(c4n[nH]c5ccccc45)CC3)[nH]c(=O)c12 : > 10 µM
O=c1[nH]c(NCCN2CCC(c3n[nH]c4cc(F)ccc34)CC2)nc2cc(Cl)ccc12 : > 10 µM
CO[C@@H]1CN(CCCNc2nc(O)c3ccc(Cl)cc3n2)CC[C@@H]1NC(=O)c1cc(Cl)c(N)c2c1OC(C)(C)C2 : > 10 µM
CC1(C)Cc2cc(Cl)cc(C(=O)NC3CCN(CCNc4nc(O)c5ccccc5n4)CC3)c2O1 : > 10 µM

Kindly review the next molecule as well.
Give the reported value of IC50 for this record: `O=c1[nH]c(NCCN2CCC(Nc3n[nH]c(=O)c4ccccc34)CC2)nc2ccccc12`
0.938 µM

----------
Molecular target: TANK-2 enzyme (Homo sapiens)
Construct: made in house
Sequence (Q9H2K2 1-1166): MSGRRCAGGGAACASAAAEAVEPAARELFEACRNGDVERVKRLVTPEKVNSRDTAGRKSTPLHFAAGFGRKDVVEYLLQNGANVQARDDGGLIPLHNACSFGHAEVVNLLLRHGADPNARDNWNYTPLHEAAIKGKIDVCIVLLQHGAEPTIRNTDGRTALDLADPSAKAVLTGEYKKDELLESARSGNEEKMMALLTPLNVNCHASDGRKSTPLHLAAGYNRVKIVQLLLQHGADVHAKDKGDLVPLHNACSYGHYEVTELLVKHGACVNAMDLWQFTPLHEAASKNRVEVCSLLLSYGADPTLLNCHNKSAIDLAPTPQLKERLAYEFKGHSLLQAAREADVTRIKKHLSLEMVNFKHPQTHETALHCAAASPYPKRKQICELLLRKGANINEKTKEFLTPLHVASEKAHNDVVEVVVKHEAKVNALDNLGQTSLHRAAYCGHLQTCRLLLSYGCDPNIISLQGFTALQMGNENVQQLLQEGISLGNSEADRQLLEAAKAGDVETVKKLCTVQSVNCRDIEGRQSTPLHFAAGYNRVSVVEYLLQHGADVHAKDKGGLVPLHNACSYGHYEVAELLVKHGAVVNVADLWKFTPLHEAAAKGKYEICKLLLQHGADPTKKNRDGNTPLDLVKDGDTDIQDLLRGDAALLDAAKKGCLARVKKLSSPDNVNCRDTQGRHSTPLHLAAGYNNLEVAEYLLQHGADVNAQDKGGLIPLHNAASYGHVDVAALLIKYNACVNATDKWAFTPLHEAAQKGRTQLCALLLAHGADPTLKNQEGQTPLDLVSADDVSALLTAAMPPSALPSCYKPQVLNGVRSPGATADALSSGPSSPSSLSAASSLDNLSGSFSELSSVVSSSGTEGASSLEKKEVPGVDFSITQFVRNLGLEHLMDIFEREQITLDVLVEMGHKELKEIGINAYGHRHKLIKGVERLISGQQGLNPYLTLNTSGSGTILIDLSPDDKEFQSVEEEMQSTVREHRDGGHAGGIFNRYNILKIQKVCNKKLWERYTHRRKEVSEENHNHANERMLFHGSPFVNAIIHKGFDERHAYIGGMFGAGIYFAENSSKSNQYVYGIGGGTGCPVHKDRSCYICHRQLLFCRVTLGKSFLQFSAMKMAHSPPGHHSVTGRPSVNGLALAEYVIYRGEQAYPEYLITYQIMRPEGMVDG
Test: In vitro scintillation proximity assay (SPA) for TANK-2 inhibitory activity
Type: biochemical
Settings: auto-poly(ADP-ribosyl)ation; 96-well plate results if available, otherwise 384-well; read-out: in vitro SPA assay TANK-2 pIC50 (converted)
readout_kind: IC50

O=C(NC1CCN(CCCNc2nc3ccccc3c(=O)[nH]2)CC1)c1ccccc1 [Compound 23] : > 10 µM
Cc1ccc2nc(NCCN3CCC(c4n[nH]c5cc(F)ccc45)CC3)[nH]c(=O)c2c1 [Compound 37] : > 10 µM
O=c1[nH]c(NCCCN2CCC(O)(c3ccc(Cl)cc3)CC2)nc2ccccc12 [Compound 2] : > 10 µM
CC1(C)Cc2c(N)c(Cl)cc(C(=O)NC3CCN(CCCNc4nc(O)c5ccccc5n4)CC3)c2O1 [Compound 4] : > 10 µM
O=c1[nH]c(NCCN2CCN(c3n[nH]c4ccccc34)CC2)nc2cc(Cl)ccc12 [Compound 44] : > 10 µM
CC1(C)Cc2c(N)c(Cl)cc(C(=O)NC3CCN(CCCCNc4nc(O)c5ccccc5n4)CC3)c2O1 [Compound 5] : > 10 µM
O=c1[nH]c(NCCCN2CCN(c3nsc4ccccc34)CC2)nc2ccccc12 [Compound 24] : > 10 µM

Give the reported value of IC50 for this record: O=c1[nH]c(NCCN2CCN(c3nc4ccccc4c(=O)[nH]3)CC2)nc2ccccc12 [Compound 38]
0.537 µM
